Value source: patent US20180251562A1

Biological target: T1, solubilized human INSR (B isoform) from CHO-hINSR-B cells, without insulin (human, UniProt P06213 28-1382)
T1 construct: mature; Detergent-solubilized full-length receptor in cell lysate, captured on the SPR chip by its carboxy-terminal part; also called solubilized INSR
Assay: SPR (ProteOn XPR36), solubilized INSR-B captured by CT-3 mAb, Fab injected, -insulin

BINDER	Kd / nM
XPA.15.247.2.011 Fab (Fab, V domains shown, Fab; also called XPA.15.247.011) VH: EVQLVETGGGVVQPGRSLRLSCAASGFTFSSYAMHWVRQAPGKGLEWVAVISYSGSNKYYADSVKGRFTISRDNSKNTLYLQMNSLRAEDTAVYYCARHEWGFGFDYWGQGTTVTVSS VL: DVVMTQSPLSLPVTLGQPASISCRSSHSLVYGDGNTYLNWFHQRPGQSPRRLIYKVSNRDSGVPDRFAGSGSGTDFTLKISRVEADDFGVFYCMQGTHWPYTFGQGTKLEIKR	10
